# System: Plutella xylostella
# Assay Procedure: Insecticidal activity against Plutella xylostella (Airbrush spray on cabbage leaf discs)
# Assay type: in vivo
# Measurement Parameters: Table 73, 0.5 mg/L, 3 d after administration
Property Label: Fatality rate (%, 3 d after administration) 0.5 mg/L (%)

[
  {
    "Compound": "NC(=O)CCN(C(=O)c1ccccc1)c1cccc(C(=O)N(CCC(N)=O)c2c(Br)cc(C(F)(C(F)(F)F)C(F)(F)F)cc2C(F)(F)F)c1F [CK9, reference compound]",
    "Target Entity": "Plutella xylostella",
    "Unit Spec": "%",
    "Meas Value": 0
  },
  {
    "Compound": "NC(=O)CCN(C(=O)c1ccccc1)c1cccc(C(=O)N(CCC(N)=O)c2c(Br)cc(C(F)(C(F)(F)F)C(F)(F)F)cc2C(F)(F)F)c1F [CK10, reference compound]",
    "Target Entity": "Plutella xylostella",
    "Unit Spec": "%",
    "Meas Value": 0
  },
  {
    "Compound": "NC(=O)CCN(C(=O)c1ccccc1)c1cccc(C(=O)N(CCC(N)=O)c2c(Br)cc(C(F)(C(F)(F)F)C(F)(F)F)cc2C(F)(F)F)c1F [CK13, reference compound]",
    "Target Entity": "Plutella xylostella",
    "Unit Spec": "%",
    "Meas Value": 0
  },
  {
    "Compound": "NC(=O)CCN(C(=O)c1ccccc1)c1cccc(C(=O)N(CCC(N)=O)c2c(Br)cc(C(F)(C(F)(F)F)C(F)(F)F)cc2C(F)(F)F)c1F [CK6, reference compound]",
    "Target Entity": "Plutella xylostella",
    "Unit Spec": "%",
    "Meas Value": 10
  }
]
